Each item that follows carries a reported NanoBRET Fold Response.
Target: GALR1 (Homo sapiens)
Construct: purchased Promega (in-house HiBiT-GPCR construct library, NanoBRET)
Sequence (P47211 whole entry): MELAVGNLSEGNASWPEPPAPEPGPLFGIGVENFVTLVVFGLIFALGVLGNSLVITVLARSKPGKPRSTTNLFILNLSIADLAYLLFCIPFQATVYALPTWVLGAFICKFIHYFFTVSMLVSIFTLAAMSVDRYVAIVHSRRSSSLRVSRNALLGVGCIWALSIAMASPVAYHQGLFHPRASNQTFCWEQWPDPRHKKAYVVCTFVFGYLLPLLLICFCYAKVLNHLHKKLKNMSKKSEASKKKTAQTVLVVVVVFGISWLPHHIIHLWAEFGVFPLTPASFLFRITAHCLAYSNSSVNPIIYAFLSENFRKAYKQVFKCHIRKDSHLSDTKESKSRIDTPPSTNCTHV
Experiment: NanoBRET screen HiBiT-GALR1 in HEK293
Assay type: binding
Details: GALR1; tracer 1μM
// print number alone

| compound | NanoBRET Fold Response |
| --- | --- |
| CC(C)N(CC[C@H](c1ccccc1)c1cc(CCNC(=O)CCOCCOCCOCCOCCNC(=O)CCc2ccc3n2[B-](F)(F)[N+]2=C(c4ccc[nH]4)C=CC2=C3)ccc1O)C(C)C | 0.99 |

Inquiry: For Cc1cc2c(s1)Nc1ccccc1N=C2N1CCN(CCCNC(=O)CCOCCOCCOCCOCCNC(=O)CCc2ccc3n2[B-](F)(F)[N+]2=C(c4ccc[nH]4)C=CC2=C3)CC1 , what is its reported NanoBRET Fold Response?
Reply text: 1.09

Inquiry: Same question for O=C(CCc1ccc2n1[B-](F)(F)[N+]1=C(c3ccc[nH]3)C=CC1=C2)NCCOCCOCCNC(=O)OCCOCCN1CCN(C2=Nc3ccccc3Sc3ccccc32)CC1 please.
Reply text: 0.76

Inquiry: Same question for O=C(CCc1ccc2n1[B-](F)(F)[N+]1=C(c3ccc[nH]3)C=CC1=C2)NCc1ccc(C(=O)NCCOCCC(=O)N[C@@H]2CC[C@@]3(O)[C@H]4Cc5ccc(O)c6c5[C@@]3(CCN4CC3CC3)[C@H]2O6)cc1 [Naltrexone-3-NB590] please.
Reply text: 0.89

* * *

Molecular target: ADRB3 (Homo sapiens)
Construct: purchased Promega (in-house HiBiT-GPCR construct library, NanoBRET)
Sequence (P13945 whole entry): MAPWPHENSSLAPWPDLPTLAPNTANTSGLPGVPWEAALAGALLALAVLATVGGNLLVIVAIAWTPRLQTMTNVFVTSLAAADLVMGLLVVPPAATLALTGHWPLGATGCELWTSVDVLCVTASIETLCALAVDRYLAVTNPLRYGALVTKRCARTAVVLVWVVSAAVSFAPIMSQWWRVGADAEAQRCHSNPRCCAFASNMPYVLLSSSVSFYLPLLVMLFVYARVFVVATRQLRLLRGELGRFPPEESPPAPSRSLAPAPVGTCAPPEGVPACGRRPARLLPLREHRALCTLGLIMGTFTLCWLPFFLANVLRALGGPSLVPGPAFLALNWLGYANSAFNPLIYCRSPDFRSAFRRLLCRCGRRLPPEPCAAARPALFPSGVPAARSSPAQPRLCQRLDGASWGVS
Experiment: NanoBRET screen HiBiT-ADRB3 in HEK293
Assay type: binding
Conditions: ADRB3; tracer 0.1μM
quantityKind: NanoBRET Fold Response

Worked cases, NanoBRET Fold Response given:
| molecule | recordedResult |
| --- | --- |
| N#CN=C(NCCCOc1cccc(CN2CCCCC2)c1)NCCNC(=O)CCOCCOCCOCCOCCNC(=O)CCc1ccc2n1[B-](F)(F)[N+]1=C(c3ccc[nH]3)C=CC1=C2 | 1.00 |
| O=C(CCc1ccc2n1[B-](F)(F)[N+]1=C(c3ccc[nH]3)C=CC1=C2)NCCOCCOCCNC(=O)OCCOCCN1CCN(C2=Nc3ccccc3Sc3ccccc32)CC1 | 1.08 |
| O=C(CCOCCOCCOCCOCCNC(=O)CCc1ccc2n1[B-](F)(F)[N+]1=C(c3ccc[nH]3)C=CC1=C2)NCCCN1CCN(C2=Nc3ccccc3Oc3ccc(Cl)cc32)CC1 | 1.01 |
| COc1ccccc1N1CCN(CCCCN2C(=O)c3ccc(CNC(=O)CCOCCOCCOCCOCCNC(=O)CCc4ccc5n4[B-](F)(F)[N+]4=C(c6ccc[nH]6)C=CC4=C5)cc3C2=O)CC1 | 0.98 |
| O=C(CCc1ccc2n1[B-](F)(F)[N+]1=C(c3ccc[nH]3)C=CC1=C2)NCc1ccc(C(=O)NCCOCCC(=O)N[C@@H]2CC[C@@]3(O)[C@H]4Cc5ccc(O)c6c5[C@@]3(CCN4CC3CC3)[C@H]2O6)cc1 [Naltrexone-3-NB590] | 0.99 |

Inquiry: For COc1ccccc1N1CCN(CCCCN2C(=O)c3ccc(CNC(=O)CCOCCNC(=O)c4ccc(CNC(=O)CCc5ccc6n5[B-](F)(F)[N+]5=C(c7ccc[nH]7)C=CC5=C6)cc4)cc3C2=O)CC1 , what is its reported NanoBRET Fold Response?
Reply text: 1.03

Inquiry: Same question for CC(C)N(CC[C@H](c1ccccc1)c1cc(CCNC(=O)c2ccc(CNC(=O)CCc3ccc4n3[B-](F)(F)[N+]3=C(c5ccc[nH]5)C=CC3=C4)cc2)ccc1O)C(C)C please.
Reply text: 0.93

* * *

Target: AGTR2 (Homo sapiens, UniProt P50052)
Construct: purchased Promega (in-house HiBiT-GPCR construct library, NanoBRET)
Sequence (P50052 whole entry): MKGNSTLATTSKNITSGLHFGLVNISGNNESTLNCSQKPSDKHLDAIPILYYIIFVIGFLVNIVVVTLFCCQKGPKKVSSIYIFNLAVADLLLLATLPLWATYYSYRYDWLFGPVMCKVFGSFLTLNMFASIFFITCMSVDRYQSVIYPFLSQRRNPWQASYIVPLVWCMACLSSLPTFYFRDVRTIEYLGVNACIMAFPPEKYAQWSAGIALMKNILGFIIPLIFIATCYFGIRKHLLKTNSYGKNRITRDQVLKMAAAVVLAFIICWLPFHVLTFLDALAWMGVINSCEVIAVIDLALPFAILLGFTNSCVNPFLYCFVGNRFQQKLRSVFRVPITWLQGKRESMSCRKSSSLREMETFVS
Assay: NanoBRET screen HiBiT-AGTR2 in HEK293
Type: binding
Settings: AGTR2; tracer 1μM
Protocol: Each tracer candidate was screened across the entire library of HiBiT-GPCR constructs using NanoBRET as the detection modality. As depicted in Figure 4A, the specificity of interactions was evaluated through decrease in BRET due to competitive displacement of a bound tracer by excess parental compound. Each tracer was analyzed for binding to each HiBiT-GPCR fusion in the absence and in the presence of competing parental compound. […]
Lab note: compare NanoBRET Fold Response against 1. Equal or greater, write criterion met. Smaller, write criterion not met.

| smilesRepr | classLabel |
| --- | --- |
| O=C(CCc1ccc2n1[B-](F)(F)[N+]1=C(c3ccc[nH]3)C=CC1=C2)NCCOCCOCCNC(=O)OCCOCCN1CCN(C2=Nc3ccccc3Sc3ccccc32)CC1 | criterion met |
| CCCn1c(=O)c2[nH]c(-c3ccc(OCC(=O)NCCNC(=O)CCOCCNC(=O)c4ccc(CNC(=O)CCc5ccc6n5[B-](F)(F)[N+]5=C(c7ccc[nH]7)C=CC5=C6)cc4)cc3)nc2n(CCC)c1=O | criterion met |
| COc1ccccc1N1CCN(CCCCN2C(=O)c3ccc(CNC(=O)CCOCCNC(=O)c4ccc(CNC(=O)CCc5ccc6n5[B-](F)(F)[N+]5=C(c7ccc[nH]7)C=CC5=C6)cc4)cc3C2=O)CC1 | criterion not met |

Inquiry: I'd appreciate it if you could say whether CC(C)N(CC[C@H](c1ccccc1)c1cc(CCNC(=O)c2ccc(CNC(=O)CCc3ccc4n3[B-](F)(F)[N+]3=C(c5ccc[nH]5)C=CC3=C4)cc2)ccc1O)C(C)C has NanoBRET Fold Response at least equal to 1.
Reply text: criterion not met

* * *

Each item that follows carries a reported NanoBRET Fold Response.
Molecular target: CCR10 (Homo sapiens)
Construct: purchased Promega (in-house HiBiT-GPCR construct library, NanoBRET)
Sequence (P46092 whole entry): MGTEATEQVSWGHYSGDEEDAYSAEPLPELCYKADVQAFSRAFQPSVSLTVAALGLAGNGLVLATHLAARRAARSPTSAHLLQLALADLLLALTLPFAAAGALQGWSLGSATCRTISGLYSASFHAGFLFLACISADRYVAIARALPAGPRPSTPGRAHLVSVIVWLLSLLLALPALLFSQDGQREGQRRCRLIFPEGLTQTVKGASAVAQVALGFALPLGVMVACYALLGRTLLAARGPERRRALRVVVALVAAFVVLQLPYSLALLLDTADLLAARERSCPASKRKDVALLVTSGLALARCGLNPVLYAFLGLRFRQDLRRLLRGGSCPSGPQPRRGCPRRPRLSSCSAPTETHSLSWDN
Experiment: NanoBRET screen HiBiT-CCR10 in HEK293
Format: binding
Details: CCR10; tracer 1μM
// print number alone

Worked cases, NanoBRET Fold Response given:
| molecule | testTarget | NanoBRET Fold Response |
| --- | --- | --- |
| N#CN=C(NCCCOc1cccc(CN2CCCCC2)c1)NCCNC(=O)CCOCCOCCOCCOCCNC(=O)CCc1ccc2n1[B-](F)(F)[N+]1=C(c3ccc[nH]3)C=CC1=C2 | CCR10 (Homo sapiens) | 1.01 |
| O=C(CCc1ccc2n1[B-](F)(F)[N+]1=C(c3ccc[nH]3)C=CC1=C2)NCc1ccc(C(=O)NCCOCCC(=O)N[C@@H]2CC[C@@]3(O)[C@H]4Cc5ccc(O)c6c5[C@@]3(CCN4CC3CC3)[C@H]2O6)cc1 [Naltrexone-3-NB590] | CCR10 (Homo sapiens) | 0.92 |
| Cc1nc2n(c(=O)c1CCN1CCC(c3noc4cc(F)ccc34)CC1)CCCC2OC(=O)NCCOCCOCCOCCOCCNC(=O)CCc1ccc2n1[B-](F)(F)[N+]1=C(c3ccc[nH]3)C=CC1=C2 (stereo not drawn) | CCR10 (Homo sapiens) | 0.95 |
| O=C(CCOCCOCCOCCOCCNC(=O)CCc1ccc2n1[B-](F)(F)[N+]1=C(c3ccc[nH]3)C=CC1=C2)NCCCN1CCN(C2=Nc3ccccc3Oc3ccc(Cl)cc32)CC1 | CCR10 (Homo sapiens) | 1.04 |
| COc1ccccc1N1CCN(CCCCN2C(=O)c3ccc(CNC(=O)CCOCCNC(=O)c4ccc(CNC(=O)CCc5ccc6n5[B-](F)(F)[N+]5=C(c7ccc[nH]7)C=CC5=C6)cc4)cc3C2=O)CC1 | CCR10 (Homo sapiens) | 1.27 |

Inquiry: Test system CCR10 (Homo sapiens); read-out NanoBRET Fold Response; what value for O=C(CCc1ccc2n1[B-](F)(F)[N+]1=C(c3ccc[nH]3)C=CC1=C2)NCCOCCOCCNC(=O)OCCOCCN1CCN(C2=Nc3ccccc3Sc3ccccc32)CC1 ?
Reply text: 0.94

* * *

Target: MTNR1A (Homo sapiens)
Construct: purchased Promega (in-house HiBiT-GPCR construct library, NanoBRET)
Sequence (P48039 whole entry): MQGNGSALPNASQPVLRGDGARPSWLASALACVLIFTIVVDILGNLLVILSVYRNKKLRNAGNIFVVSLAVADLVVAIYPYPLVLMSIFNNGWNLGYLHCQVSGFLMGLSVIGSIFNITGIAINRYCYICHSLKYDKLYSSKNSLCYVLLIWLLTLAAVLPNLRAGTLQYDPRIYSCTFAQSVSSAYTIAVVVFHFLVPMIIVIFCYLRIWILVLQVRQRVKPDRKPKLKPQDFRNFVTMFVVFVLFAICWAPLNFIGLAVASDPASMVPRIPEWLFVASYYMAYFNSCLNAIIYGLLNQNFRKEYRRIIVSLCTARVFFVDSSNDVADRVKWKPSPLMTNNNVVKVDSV
Experiment: NanoBRET screen HiBiT-MTNR1A in HEK293
Type: binding
Conditions: MTNR1A; tracer 0.1μM
Each item that follows carries a reported NanoBRET Fold Response.

Worked cases, NanoBRET Fold Response given:
| compound | NanoBRET Fold Response |
| --- | --- |
| Cc1nc2n(c(=O)c1CCN1CCC(c3noc4cc(F)ccc34)CC1)CCCC2OC(=O)NCCOCCOCCOCCOCCNC(=O)CCc1ccc2n1[B-](F)(F)[N+]1=C(c3ccc[nH]3)C=CC1=C2 (stereo not shown) | 0.97 |
| CC(C)N(CC[C@H](c1ccccc1)c1cc(CCNC(=O)CCOCCOCCOCCOCCNC(=O)CCc2ccc3n2[B-](F)(F)[N+]2=C(c4ccc[nH]4)C=CC2=C3)ccc1O)C(C)C | 1.07 |
| CN(C)CCC=C1c2ccccc2CCc2ccc(C(=O)NCCNC(=O)CCOCCOCCOCCOCCNC(=O)CCc3ccc4n3[B-](F)(F)[N+]3=C(c5ccc[nH]5)C=CC3=C4)cc21 | 0.96 |

Inquiry: For CC(C)N(CC[C@H](c1ccccc1)c1cc(CCNC(=O)c2ccc(CNC(=O)CCc3ccc4n3[B-](F)(F)[N+]3=C(c5ccc[nH]5)C=CC3=C4)cc2)ccc1O)C(C)C , what is its reported NanoBRET Fold Response?
Reply text: 0.97

Inquiry: Same question for Cc1cc2c(s1)Nc1ccccc1N=C2N1CCN(CCCNC(=O)CCOCCOCCOCCOCCNC(=O)CCc2ccc3n2[B-](F)(F)[N+]2=C(c4ccc[nH]4)C=CC2=C3)CC1 please.
Reply text: 1.01

Inquiry: Same question for O=C(CCc1ccc2n1[B-](F)(F)[N+]1=C(c3ccc[nH]3)C=CC1=C2)NCc1ccc(C(=O)NCCOCCC(=O)N[C@@H]2CC[C@@]3(O)[C@H]4Cc5ccc(O)c6c5[C@@]3(CCN4CC3CC3)[C@H]2O6)cc1 [Naltrexone-3-NB590] please.
Reply text: 0.76

Inquiry: Same question for O=C(CCOCCOCCOCCOCCNC(=O)CCc1ccc2n1[B-](F)(F)[N+]1=C(c3ccc[nH]3)C=CC1=C2)NCCCN1CCN(C2=Nc3ccccc3Oc3ccc(Cl)cc32)CC1 please.
Reply text: 0.92
